# experimentalTarget: RPS6KB2 (human)
reportedEndpoint: IC50 (µM)
Note: unit µM is implicit; provide only the numeric part.

# query: IC50 | item CCc1cncnc1N1CCN(Cc2nc3cc(C(F)(F)F)ccc3[nH]2)CC1 | system: RPS6KB2 (human)
65
